Assay: physchem
Conditions: pH 1, simulated gastric fluid
Where a name gives a salt, the structure may show the parent alone.
Observation Type: solubility (mg/mL)
# value in mg/mL; strip the unit string

Input: What does the record list as solubility for OCCOCCN1CCN(C2=Nc3ccccc3Sc3ccccc32)CC1 [Quetiapine fumarate] ?
Output: 35.8
